# Tested on: TK6 cells
# experimental-protocol: Cytostasis analysis (Relative Population Doubling, Guava ViaCount)
# Assay type: cell-based, human
# condition-context: 12.5 µM, 26 h treatment, vs untreated control C (-) = 100%, mean ± SEM
readout-name: Relative Population Doubling (RPD)

Query: Look at this compound and give its reported Relative Population Doubling (RPD). COc1cc(CCNCc2ccccc2OC)c(OC)cc1Br [25B-NBOMe]
Response: 81.2% ± 2.0

Now, please, on to the next compound.
Query: Look at this compound and give its reported Relative Population Doubling (RPD). `COc1cc(CCN)c(OC)cc1I`
Response: 89.6% ± 2.2
